- Tested on: EKVX NSCLC
- protocol.text: NCI-60 one-dose screen, 48 h
- conditions: 10 µM
Compounds without any hit were thinned out: in the full panel of roughly 83,000, 20% have a hit. Active and inactive are the calls of the source. The calls were made as follows: active = growth percent below 10; inactive = the rest.
Just give me one of these, please: active, inactive

These recorded examples may help you get a feel for the data.
>>> group("Cc1cc([N+](=O)[O-])c2ccccc2[n+]1[O-]")
"inactive"
>>> group("COc1cc([C@@H]2c3cc4c(c(O)c3C[C@H]3COC(=O)[C@@H]32)OCO4)cc(OC)c1OC")
"inactive"

Please let me know the test result on file for CN(CCCl)c1ccc(/C=C/C2=[N+](C)c3ccccc3C2(C)C)cc1 .
inactive

How was CC1CCC2(OC1)OC1C(O)C3C4CCC5CC(OC6OC(CO)C(OC7OC(CO)C(O)C(OC8OCC(O)C(O)C8O)C7OC7OC(CO)C(O)C(OC8OC(CO)C(O)C(O)C8O)C7O)C(O)C6O)C(O)CC5(C)C4CCC3(C)C1C2C (stereo unspecified) classified in this test?
active

Called result for COc1ccccc1/C=C/[N+](=O)[O-]
inactive

Assay result, entry CC(C)c1cc([N+](=O)[O-])cc([N+](=O)[O-])c1O — outcome?
inactive

Hey, what did the test say about COc1cc(/C=C(/C)[N+](=O)[O-])ccc1O ?
inactive

I would be grateful if you could indicate the recorded call for NNc1ccccc1 .
inactive

GET /call?item= [O-][n+]1ccccc1S returns the recorded outcome of this test.
inactive

Each compound tested received a call. Report the one for COC12C(COC(N)=O)C3=C(C(=O)C(C)=C(N)C3=O)N1CC1C2N1C (stereo unspecified) .
inactive

Record lookup: outcome of this test for O=C1C(=O)c2ccccc2-c2ccccc21 ?
active
